# experimental.protocol: in vivo
# measurement.parameters: female, Sprague-Dawley, rat, iv, 15 mg/kg, Tmax, pregnant rats, placenta, nirmatrelvir 15 mg/kg i.v. alone
metric: Tmax (min)

> print(dat)
                           smiles.structure  unit.descriptor  quantitative.readout
1  CC(C)(C)[C@H](NC(=O)C(F)(F)F)C(=O)N1C[C@H]2[C@@H]([C@H]1C(=O)N[C@H](C#N)C[C@@H]1CCNC1=O)C2(C)C              min                    40

----------
# experimental.protocol: in vivo
# measurement.parameters: female, Sprague-Dawley, rat, iv, 15 mg/kg, Tmax, pregnant rats, amniotic fluid, nirmatrelvir 15 mg/kg i.v. alone
metric: Tmax (h)

> print(dat)
                           smiles.structure  quantitative.readout
1  CC(C)(C)[C@H](NC(=O)C(F)(F)F)C(=O)N1C[C@H]2[C@@H]([C@H]1C(=O)N[C@H](C#N)C[C@@H]1CCNC1=O)C2(C)C                  1.05

----------
# experimental.protocol: in vivo
# measurement.parameters: male, Sprague-Dawley, rat, iv, 15 mg/kg, CL (clearance), male rats, blood, nirmatrelvir 15 mg/kg i.v. plus ritonavir 7 mg/kg i.v.
metric: clearance (mL/min/kg)

> print(dat)
                                   compound     metric  unit.descriptor  quantitative.readout
1  CC(C)(C)[C@H](NC(=O)C(F)(F)F)C(=O)N1C[C@H]2[C@@H]([C@H]1C(=O)N[C@H](C#N)C[C@@H]1CCNC1=O)C2(C)C [Nirmatrelvir]  clearance        mL/min/kg                  3.16

----------
# experimental.protocol: in vivo
# measurement.parameters: male, Sprague-Dawley, rat, iv, 15 mg/kg, AUClast, male rats, brain, nirmatrelvir 15 mg/kg i.v. alone
metric: AUC(0-t) (ng·h/mL)

> print(dat)
                           smiles.structure    metric  quantitative.readout
1  CC(C)(C)[C@H](NC(=O)C(F)(F)F)C(=O)N1C[C@H]2[C@@H]([C@H]1C(=O)N[C@H](C#N)C[C@@H]1CCNC1=O)C2(C)C  AUC(0-t)                  3540

----------
# experimental.protocol: in vivo
# measurement.parameters: female, Sprague-Dawley, rat, iv, 15 mg/kg, t1/2 (elimination half-life), pregnant rats, maternal blood, nirmatrelvir 15 mg/kg i.v. alone
metric: half-life (min)

> print(dat)
                                   molecule  unit.descriptor  quantitative.readout
1  CC(C)(C)[C@H](NC(=O)C(F)(F)F)C(=O)N1C[C@H]2[C@@H]([C@H]1C(=O)N[C@H](C#N)C[C@@H]1CCNC1=O)C2(C)C [Nirmatrelvir]              min                    15

----------
# experimental.protocol: in vivo
# measurement.parameters: female, Sprague-Dawley, rat, iv, 15 mg/kg, AUClast, pregnant rats, maternal blood, nirmatrelvir 15 mg/kg i.v. alone
metric: AUC(0-t) (µg·h/mL)

> print(dat)
                           smiles.structure  quantitative.readout
1  CC(C)(C)[C@H](NC(=O)C(F)(F)F)C(=O)N1C[C@H]2[C@@H]([C@H]1C(=O)N[C@H](C#N)C[C@@H]1CCNC1=O)C2(C)C                  52.2

----------
# experimental.protocol: in vivo
# measurement.parameters: female, Sprague-Dawley, rat, iv, 15 mg/kg, AUClast, pregnant rats, placenta, nirmatrelvir 15 mg/kg i.v. plus ritonavir 7 mg/kg i.v.
metric: AUC(0-t)

> print(dat)
                                   molecule        result
1  CC(C)(C)[C@H](NC(=O)C(F)(F)F)C(=O)N1C[C@H]2[C@@H]([C@H]1C(=O)N[C@H](C#N)C[C@@H]1CCNC1=O)C2(C)C [Nirmatrelvir]  18.1 µg·h/mL

----------
# experimental.protocol: in vivo
# measurement.parameters: female, Sprague-Dawley, rat, iv, 15 mg/kg, AUClast, nonpregnant female rats, brain, nirmatrelvir 15 mg/kg i.v. alone
metric: AUC(0-t) (ng·h/mL)

> print(dat)
                           smiles.structure  quantitative.readout
1  CC(C)(C)[C@H](NC(=O)C(F)(F)F)C(=O)N1C[C@H]2[C@@H]([C@H]1C(=O)N[C@H](C#N)C[C@@H]1CCNC1=O)C2(C)C                  3120

----------
# experimental.protocol: in vivo
# measurement.parameters: female, Sprague-Dawley, rat, iv, 15 mg/kg, AUClast, nonpregnant female rats, blood, nirmatrelvir 15 mg/kg i.v. plus ritonavir 7 mg/kg i.v.
metric: AUC(0-t)

> print(dat)
                           smiles.structure         result
1  CC(C)(C)[C@H](NC(=O)C(F)(F)F)C(=O)N1C[C@H]2[C@@H]([C@H]1C(=O)N[C@H](C#N)C[C@@H]1CCNC1=O)C2(C)C  69400 ng·h/mL

----------
# experimental.protocol: in vivo
# measurement.parameters: female, Sprague-Dawley, rat, iv, AUCtissue/AUCblood (maternal blood-to-tissue transfer ratio), pregnant rats, fetus, nirmatrelvir 15 mg/kg i.v. plus ritonavir 7 mg/kg i.v.
metric: Kp

> print(dat)
                           smiles.structure  quantitative.readout
1  CC(C)(C)[C@H](NC(=O)C(F)(F)F)C(=O)N1C[C@H]2[C@@H]([C@H]1C(=O)N[C@H](C#N)C[C@@H]1CCNC1=O)C2(C)C                  0.06

----------
# experimental.protocol: in vivo
# measurement.parameters: female, Sprague-Dawley, rat, iv, 15 mg/kg, MRT (mean residence time), pregnant rats, amniotic fluid, nirmatrelvir 15 mg/kg i.v. plus ritonavir 7 mg/kg i.v.
metric: MRT

> print(dat)
                           smiles.structure  result
1  CC(C)(C)[C@H](NC(=O)C(F)(F)F)C(=O)N1C[C@H]2[C@@H]([C@H]1C(=O)N[C@H](C#N)C[C@@H]1CCNC1=O)C2(C)C  7.62 h

----------
# experimental.protocol: in vivo
# measurement.parameters: female, Sprague-Dawley, rat, iv, 15 mg/kg, t1/2 (elimination half-life), pregnant rats, fetus, nirmatrelvir 15 mg/kg i.v. alone
metric: half-life (h)

> print(dat)
                           smiles.structure     metric  quantitative.readout
1  CC(C)(C)[C@H](NC(=O)C(F)(F)F)C(=O)N1C[C@H]2[C@@H]([C@H]1C(=O)N[C@H](C#N)C[C@@H]1CCNC1=O)C2(C)C  half-life                  3.03

----------
# experimental.protocol: in vivo
# measurement.parameters: female, Sprague-Dawley, rat, iv, 15 mg/kg, CL (clearance), nonpregnant female rats, blood, nirmatrelvir 15 mg/kg i.v. alone
metric: clearance (mL/min/kg)

> print(dat)
                                   compound  unit.descriptor  quantitative.readout
1  CC(C)(C)[C@H](NC(=O)C(F)(F)F)C(=O)N1C[C@H]2[C@@H]([C@H]1C(=O)N[C@H](C#N)C[C@@H]1CCNC1=O)C2(C)C [Nirmatrelvir]        mL/min/kg                    16

----------
# experimental.protocol: in vivo
# measurement.parameters: male, Sprague-Dawley, rat, iv, 15 mg/kg, t1/2 (elimination half-life), male rats, brain, nirmatrelvir 15 mg/kg i.v. alone
metric: half-life (h)

> print(dat)
                                   molecule     metric  quantitative.readout
1  CC(C)(C)[C@H](NC(=O)C(F)(F)F)C(=O)N1C[C@H]2[C@@H]([C@H]1C(=O)N[C@H](C#N)C[C@@H]1CCNC1=O)C2(C)C [Nirmatrelvir]  half-life                   1.1

----------
# experimental.protocol: in vivo
# measurement.parameters: female, Sprague-Dawley, rat, iv, 15 mg/kg, Tmax, pregnant rats, fetus, nirmatrelvir 15 mg/kg i.v. plus ritonavir 7 mg/kg i.v.
metric: Tmax (h)

> print(dat)
                                   compound  quantitative.readout
1  CC(C)(C)[C@H](NC(=O)C(F)(F)F)C(=O)N1C[C@H]2[C@@H]([C@H]1C(=O)N[C@H](C#N)C[C@@H]1CCNC1=O)C2(C)C [Nirmatrelvir]                  3.93

----------
# experimental.protocol: in vivo
# measurement.parameters: female, Sprague-Dawley, rat, iv, 15 mg/kg, t1/2 (elimination half-life), nonpregnant female rats, brain, nirmatrelvir 15 mg/kg i.v. alone
metric: half-life (h)

> print(dat)
                           smiles.structure  quantitative.readout
1  CC(C)(C)[C@H](NC(=O)C(F)(F)F)C(=O)N1C[C@H]2[C@@H]([C@H]1C(=O)N[C@H](C#N)C[C@@H]1CCNC1=O)C2(C)C                  1.08
